List of inhibition in vivo at 10 mg/kg values.
- Test system: Male Sprague-Dawley rats
- protocolDescription: Rat Carrageenan-induced Analgesia Test
- Format: in vivo
- conditionSet: po, 3 h, read-out: ANALGESIA % Inhibition @ 10mg/kg body weight, rats dosed orally, hyperalgesic foot withdrawal, thermal stimulation three hours after carrageenan

Some entries whose results are on file:
COc1ccc(C2=C(c3ccc(S(C)(=O)=O)cc3)CC3(CC3)C2)cc1Cl
7%
CS(=O)(=O)c1ccc(C2=C(c3ccc(F)cc3)CC3(CC3)C2)cc1
15%
COc1ccc(C2=C(c3ccc(S(C)(=O)=O)cc3)CC3(CC3)C2)cc1F
8%
NS(=O)(=O)c1ccc(C2=C(c3ccc(Cl)c(Cl)c3)CC3(CC3)C2)cc1
29%
NS(=O)(=O)c1ccc(C2=C(c3ccc(F)cc3)CC3(CC3)C2)cc1
34%

Give the value of inhibition in vivo at 10 mg/kg reported for the following: COc1c(Cl)cc(C2=C(c3ccc(S(C)(=O)=O)cc3)CC3(CC3)C2)cc1Cl
28%

Give the value of inhibition in vivo at 10 mg/kg reported for the following: NS(=O)(=O)c1ccc(C2=C(c3ccc(C(F)(F)F)cc3)CC3(CC3)C2)cc1
22%

###

- Tested on: Male Sprague-Dawley rats
- protocolDescription: Rat Carrageenan Foot Pad Edema Test
- Assay type: in vivo
- conditionSet: po, 3 h, rats dosed orally, 10mg/kg body weight, one hour before carrageenan, foot volume three hours after carrageenan, read-out: RAT PAW EDEMA % Inhibition @ 10mg/kg body weight
measuredProperty: inhibition in vivo at 10 mg/kg (%)
Field format: number, assumed %, no unit text.

COc1ccc(C2=C(c3ccc(S(C)(=O)=O)cc3)CC3(CC3)C2)cc1F
15

Give the value of inhibition in vivo at 10 mg/kg reported for the following: NS(=O)(=O)c1ccc(C2=C(c3ccc(F)cc3)CC3(CCC3)C2)cc1
17

Give the value of inhibition in vivo at 10 mg/kg reported for the following: CS(=O)(=O)c1ccc(C2=C(c3ccc(C(F)(F)F)cc3)CC3(CC3)C2)cc1
11

Give the value of inhibition in vivo at 10 mg/kg reported for the following: CS(=O)(=O)c1ccc(C2=C(c3ccc(F)cc3)CC3(CCC3)C2)cc1
24

Give the value of inhibition in vivo at 10 mg/kg reported for the following: NS(=O)(=O)c1ccc(C2=C(c3ccc(Cl)c(Cl)c3)CC3(CC3)C2)cc1
24

Give the value of inhibition in vivo at 10 mg/kg reported for the following: NS(=O)(=O)c1ccc(C2=C(c3ccc(C(F)(F)F)cc3)CC3(CC3)C2)cc1
34

Give the value of inhibition in vivo at 10 mg/kg reported for the following: COc1ccc(C2=C(c3ccc(S(N)(=O)=O)cc3)CC3(CC3)C2)cc1F
15

Give the value of inhibition in vivo at 10 mg/kg reported for the following: CS(=O)(=O)c1ccc(C2=C(c3ccc(F)cc3)CC3(CC3)C2)cc1
32

Give the value of inhibition in vivo at 10 mg/kg reported for the following: COc1ccc(C2=C(c3ccc(S(C)(=O)=O)cc3)CC3(CC3)C2)cc1Cl
21

###

- Test system: Male Sprague-Dawley rats
- protocolDescription: Rat Carrageenan Foot Pad Edema Test
- Type: in vivo
- conditionSet: po, 3 h, rats dosed orally, 10mg/kg body weight, one hour before carrageenan, foot volume three hours after carrageenan, read-out: RAT PAW EDEMA % Inhibition @ 10mg/kg body weight
measuredProperty: inhibition in vivo at 10 mg/kg (%)
Field format: number, assumed %, no unit text.

Some entries whose results are on file:
COc1c(Cl)cc(C2=C(c3ccc(S(C)(=O)=O)cc3)CC3(CC3)C2)cc1Cl [Example 20]
24
CS(=O)(=O)c1ccc(C2=C(c3ccc(F)c(Cl)c3)CC3(CC3)C2)cc1 [Example 22]
21
CS(=O)(=O)c1ccc(C2=C(c3ccc(OC(F)(F)F)cc3)CC3(CC3)C2)cc1 [Example 14]
18
CS(=O)(=O)c1ccc(C2=C(c3ccc(Cl)c(Cl)c3)CC3(CC3)C2)cc1 [Example 27]
15
COc1ccc(C2=C(c3ccc(S(C)(=O)=O)cc3)CC3(CC3)C2)cc1Br [Example 16]
6
NS(=O)(=O)c1ccc(C2=C(c3ccc(F)cc3)CC3(CC3)C2)cc1 [Example 2]
57

Give the value of inhibition in vivo at 10 mg/kg reported for the following: COc1ccc(C2=C(c3ccc(S(N)(=O)=O)cc3)CC3(CC3)C2)cc1Cl [Example 7]
20
